Reported normalised response values for the following molecules.
# Test system: MCF-10A
# experiment_description: normalised response (% of control), CellTox Green; higher = less cell death (100 = DMSO, 0 = benzethonium chloride kill control)
# experimental_parameters: incubation time: 72 h
reported_property: normalised response (%)

* CNC(=O)c1ccc(N2C(=S)N(c3ccc(C#N)c(C(F)(F)F)c3)C(=O)C2(C)C)cc1F [Enzalutamide] (10000 nM) | 111
* Cc1[nH]c2ccccc2c1CCNCc1ccc(/C=C/C(=O)NO)cc1 [Panobinostat] (1000 nM) | 34.9
* Cc1cc(Nc2cc(CN3CCOCC3)c3nc(C)c(Cc4ccc(Cl)cc4F)n3n2)n[nH]1 [Gandotinib] (1000 nM) | 90.8
* N#Cc1ccc(COC[C@H]2O[C@@H](n3c(NCc4ccc(Cl)c(Cl)c4)nc4c(N)ncnc43)[C@H](O)[C@@H]2O)cc1 (100 nM) | 97.2
* COc1cc(O)c2c(c1)/C=C/C[C@H](O)[C@H](O)C(=O)/C=C\C[C@H](C)OC2=O [(5Z)-7-Oxozeaenol] (1000 nM) | 103
* CCc1c2c(nc3ccc(OC(=O)N4CCC(N5CCCCC5)CC4)cc13)-c1cc3c(c(=O)n1C2)COC(=O)[C@]3(O)CC [Irinotecan] (10000 nM) | 100
* COc1cc2c(NC3CCN(C(C)C)CC3)nc(N3CCC(F)(F)CC3)nc2cc1OCCCN1CCCC1 [UNC0642] (100 nM) | 99.4
